// IC50 lookup, one value per entry
TARGET_DESC: human EGFR WT (NIH/3T3 cells, EGF-induced) (Homo sapiens)
Sequence (P00533 25-1210): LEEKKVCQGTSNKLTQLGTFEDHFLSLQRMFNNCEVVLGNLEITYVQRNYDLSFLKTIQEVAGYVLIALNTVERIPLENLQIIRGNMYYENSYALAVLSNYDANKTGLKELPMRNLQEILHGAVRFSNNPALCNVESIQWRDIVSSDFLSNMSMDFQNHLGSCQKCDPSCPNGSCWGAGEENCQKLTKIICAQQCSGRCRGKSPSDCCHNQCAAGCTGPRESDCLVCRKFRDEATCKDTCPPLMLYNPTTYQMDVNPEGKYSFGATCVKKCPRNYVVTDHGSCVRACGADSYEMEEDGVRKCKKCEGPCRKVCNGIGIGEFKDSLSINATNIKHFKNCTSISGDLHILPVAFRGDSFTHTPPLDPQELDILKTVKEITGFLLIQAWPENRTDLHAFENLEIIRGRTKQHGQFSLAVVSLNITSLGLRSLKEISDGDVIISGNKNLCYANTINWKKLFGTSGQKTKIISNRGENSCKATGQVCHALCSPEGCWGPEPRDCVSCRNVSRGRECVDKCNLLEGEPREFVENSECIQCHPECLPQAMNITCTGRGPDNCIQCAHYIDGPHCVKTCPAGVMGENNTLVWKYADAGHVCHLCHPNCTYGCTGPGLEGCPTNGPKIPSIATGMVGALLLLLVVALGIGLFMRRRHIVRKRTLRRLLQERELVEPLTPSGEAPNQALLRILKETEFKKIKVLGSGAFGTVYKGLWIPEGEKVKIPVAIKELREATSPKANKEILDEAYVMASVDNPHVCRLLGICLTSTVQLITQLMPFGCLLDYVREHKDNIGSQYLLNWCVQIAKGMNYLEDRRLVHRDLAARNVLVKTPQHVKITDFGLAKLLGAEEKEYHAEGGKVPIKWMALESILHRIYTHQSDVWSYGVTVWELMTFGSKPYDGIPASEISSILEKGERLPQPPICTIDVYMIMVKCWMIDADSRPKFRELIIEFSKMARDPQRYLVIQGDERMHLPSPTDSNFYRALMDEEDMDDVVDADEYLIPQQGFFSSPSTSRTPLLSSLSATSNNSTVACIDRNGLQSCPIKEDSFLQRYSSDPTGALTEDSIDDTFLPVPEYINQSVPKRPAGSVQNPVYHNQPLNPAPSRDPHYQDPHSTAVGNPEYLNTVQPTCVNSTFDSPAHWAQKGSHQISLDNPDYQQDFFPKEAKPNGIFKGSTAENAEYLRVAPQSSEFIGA
TEST_SUMMARY: EGFR target modulation in engineered NIH/3T3 cell lines (phospho-EGFR Y1068 AlphaLISA), EGFR WT
Assay type: cell-based
CONDITION_NOTES: engineered NIH/3T3 cells, read-out: NIH3T3 IC50 (μM) EGFR (WT)
Please respond with the number in µM and leave the unit unwritten.

{"SMILES_CODE": "Cc1cccc2nc(NC(=O)c3ccnnc3)n([C@@H]3CCCCN(C(=O)/C=C/CN(C)C)C3)c12", "METRIC": "IC50", "UNITS": "µM", "QUANTITATIVE_RESULT": 0.026}

Item: C=CC(=O)N1CCCC[C@@H](n2c(NC(=O)c3ccnc(C)c3)nc3cc(CN4CC[C@H](F)C4)cc(C)c32)C1 | IC50: 0.025

---

TARGET_DESC: human EGFR L858R/T790M (NIH/3T3 cells) (Homo sapiens, UniProt P00533, L858R/T790M)
Sequence (P00533 25-1210 T790M/L858R): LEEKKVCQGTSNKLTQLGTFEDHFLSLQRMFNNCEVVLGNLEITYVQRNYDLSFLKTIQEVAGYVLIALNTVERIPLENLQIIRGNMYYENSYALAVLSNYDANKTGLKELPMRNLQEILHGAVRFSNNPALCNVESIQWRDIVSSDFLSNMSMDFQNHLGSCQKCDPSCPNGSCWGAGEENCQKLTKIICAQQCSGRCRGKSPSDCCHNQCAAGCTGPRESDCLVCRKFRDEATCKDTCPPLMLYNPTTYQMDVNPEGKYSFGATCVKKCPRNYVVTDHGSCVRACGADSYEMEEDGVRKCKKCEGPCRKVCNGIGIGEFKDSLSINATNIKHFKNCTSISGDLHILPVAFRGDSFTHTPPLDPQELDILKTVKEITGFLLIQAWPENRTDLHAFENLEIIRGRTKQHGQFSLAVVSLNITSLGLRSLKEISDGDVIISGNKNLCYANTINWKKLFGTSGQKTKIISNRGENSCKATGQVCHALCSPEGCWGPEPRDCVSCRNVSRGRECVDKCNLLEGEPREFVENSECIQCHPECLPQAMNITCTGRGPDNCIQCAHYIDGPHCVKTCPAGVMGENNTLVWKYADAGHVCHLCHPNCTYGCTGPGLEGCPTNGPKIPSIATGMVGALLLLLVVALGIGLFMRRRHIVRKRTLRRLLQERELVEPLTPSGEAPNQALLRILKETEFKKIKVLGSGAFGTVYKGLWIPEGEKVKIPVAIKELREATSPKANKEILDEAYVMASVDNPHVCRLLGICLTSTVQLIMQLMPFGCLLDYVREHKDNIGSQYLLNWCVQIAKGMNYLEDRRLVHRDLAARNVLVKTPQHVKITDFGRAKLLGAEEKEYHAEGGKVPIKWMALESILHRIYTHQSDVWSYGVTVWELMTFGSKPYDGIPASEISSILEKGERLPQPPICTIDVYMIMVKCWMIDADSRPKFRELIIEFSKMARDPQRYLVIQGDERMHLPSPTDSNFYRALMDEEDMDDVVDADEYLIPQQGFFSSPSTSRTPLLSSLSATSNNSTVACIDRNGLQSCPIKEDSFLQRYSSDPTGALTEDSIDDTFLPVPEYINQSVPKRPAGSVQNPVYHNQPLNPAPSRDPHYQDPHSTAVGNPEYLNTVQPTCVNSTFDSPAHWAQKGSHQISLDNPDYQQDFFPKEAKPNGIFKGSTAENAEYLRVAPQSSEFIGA
TEST_SUMMARY: EGFR target modulation in engineered NIH/3T3 cell lines (phospho-EGFR Y1068 AlphaLISA), EGFR L858R/T790M
Format: cell-based
CONDITION_NOTES: engineered NIH/3T3 cells, read-out: NIH3T3 IC50 (μM) EGFR (L858R/T790M)
Classify: 1 when IC50 is strictly less than 0.01 µM; -1 when IC50 is not.

{"MOLECULE": "C=C(CN1CCCCC1)C(=O)N1CCCC[C@@H](n2c(NC(=O)c3ccnnc3)nc3cccc(C)c32)C1", "TARGET_DESC": "human EGFR L858R/T790M (NIH/3T3 cells) (Homo sapiens, UniProt P00533, L858R/T790M)", "GROUP_LABEL": -1}
{"MOLECULE": "C=CC(=O)N1CCC[C@@H](n2c(NC(=O)c3cccc(C(F)(F)F)c3)nc3cc(CN4CCC(F)(F)C4)ccc32)C1", "TARGET_DESC": "human EGFR L858R/T790M (NIH/3T3 cells) (Homo sapiens, UniProt P00533, L858R/T790M)", "GROUP_LABEL": -1}

Dear reviewer, please state whether Cc1cc(C(=O)Nc2nc3cccc(Cl)c3n2[C@@H]2CCCCN(C(=O)/C=C/CN3CCCC3)C2)ccn1 has IC50 strictly beneath 0.01 µM. 1

Dear reviewer, please state whether Cc1cccc2nc(NC(=O)c3ccnnc3)n([C@@H]3CCCCN(C(=O)/C=C/CN(C)C)C3)c12 has IC50 strictly beneath 0.01 µM. 1

Dear reviewer, please state whether C=CC(=O)N1CCCC[C@@H](n2c(NC(=O)c3ccccc3)nc3cc(CN(C)CCS(C)(=O)=O)cc(C)c32)C1 has IC50 strictly beneath 0.01 µM. 1

Dear reviewer, please state whether C=CC(=O)N1CCCC[C@@H](n2c(NC(=O)c3cnnc(C)c3)nc3cccc(C)c32)C1 has IC50 strictly beneath 0.01 µM. 1

Dear reviewer, please state whether C=CC(=O)N1CCCCC(n2c(NC(=O)c3ccccc3)nc3cccc(C)c32)C1 (centres unmarked) has IC50 strictly beneath 0.01 µM. 1

Dear reviewer, please state whether C=CC(=O)N1CCCC[C@@H](n2c(NC(=O)c3cccc(C(F)(F)F)c3)nc3cccc(C)c32)C1 (single isomer, unassigned) has IC50 strictly beneath 0.01 µM. 1

Dear reviewer, please state whether Cc1cccc2nc(NC(=O)c3cccc(-n4cnnn4)c3)n(C3CCCCN(C(=O)/C=C/CN(C)C)C3)c12 (centres unmarked) has IC50 strictly beneath 0.01 µM. 1

Dear reviewer, please state whether C=CC(=O)N1CCC[C@@H](n2c(NC(=O)c3cccc(C(F)(F)F)c3)nc3cc(COC)ccc32)C1 has IC50 strictly beneath 0.01 µM. -1

Dear reviewer, please state whether Cc1cc(C(=O)Nc2nc3cccc(C)c3n2[C@@H]2CCCCN(C(=O)/C=C/CN(C)C)C2)cnn1 has IC50 strictly beneath 0.01 µM. 1

Dear reviewer, please state whether C=CC(=O)N1CCOCC(n2c(NC(=O)c3cccc(C(F)(F)F)c3)nc3cccc(C)c32)C1 (single isomer, unassigned) [Example 21-7A] has IC50 strictly beneath 0.01 µM. -1

Dear reviewer, please state whether C=CC(=O)N1CCCCC(n2c(NC(=O)c3ccccc3)nc3cccc(C(=O)NCCC(=O)O)c32)C1 (centres unmarked) has IC50 strictly beneath 0.01 µM. -1

Dear reviewer, please state whether C=CC(=O)N1CCCC[C@@H](n2c(NC(=O)c3ccccc3)nc3cccc(CN4CCS(=O)(=O)CC4)c32)C1 has IC50 strictly beneath 0.01 µM. -1
